Entry source: patent US10364256B2

target-or-system: full length Keap1 protein / full length NRF2 protein (Homo sapiens)
Construct: full length NRF2 protein and full length Keap1 protein (Keap1 exists a dimer) are used; His
Sequence (Q14145 whole entry): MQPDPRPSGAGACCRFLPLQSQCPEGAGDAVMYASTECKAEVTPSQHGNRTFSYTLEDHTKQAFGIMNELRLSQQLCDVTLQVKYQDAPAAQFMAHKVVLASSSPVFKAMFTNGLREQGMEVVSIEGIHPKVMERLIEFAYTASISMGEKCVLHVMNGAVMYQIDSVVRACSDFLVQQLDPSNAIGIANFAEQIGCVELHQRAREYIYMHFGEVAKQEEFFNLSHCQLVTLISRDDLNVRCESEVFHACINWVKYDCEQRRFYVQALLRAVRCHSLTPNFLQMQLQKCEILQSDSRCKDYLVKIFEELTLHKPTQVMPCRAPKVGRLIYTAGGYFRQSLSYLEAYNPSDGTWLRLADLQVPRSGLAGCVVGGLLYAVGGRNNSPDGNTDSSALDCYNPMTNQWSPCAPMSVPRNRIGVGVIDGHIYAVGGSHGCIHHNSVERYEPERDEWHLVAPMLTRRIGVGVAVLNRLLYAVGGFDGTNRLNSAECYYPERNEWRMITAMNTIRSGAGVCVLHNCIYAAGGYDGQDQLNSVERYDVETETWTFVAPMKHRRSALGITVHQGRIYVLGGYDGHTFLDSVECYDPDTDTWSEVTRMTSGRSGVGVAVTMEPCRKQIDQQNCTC
measurement-protocol: NRF2-Keap1 TR-FRET Assay
Type: binding
condition: 25 nM Keap1-FlagHis and 50 nM biotin-NRF2 added
pIC50: −log10 of the molar value.
Reported pIC50 values for a set of molecules

Sample records with pIC50:
>>> measurement("Cn1cc([C@@H]2C[C@H]2c2c(C(=O)O)cnn2-c2cccc(-c3cccc(OCC4CCCCC4)c3)c2)nn1 [Example 171]")
"6.00 to 7.00"
>>> measurement("Cn1cc([C@H]2C[C@@H]2c2c(C(=O)O)cnn2-c2cccc(-c3cccc(C(=O)N4CCCCCC4)c3F)c2)nn1 (racemic) [Example 260]")
"7.00 to 8.00"
>>> measurement("CC(C)Oc1cccc(-c2cccc(-n3ncc(C(=O)O)c3C3CC3c3cn(C)nn3)c2)c1F (centres unmarked) [Example 181]")
"5.00 to 6.00"
>>> measurement("CC(CC1CCCCC1)Oc1cccc(-c2cccc(-n3ncc(C(=O)O)c3C3CC3c3cn(C)nn3)c2)c1 (centres unmarked) [Example 218]")
"6.00 to 7.00"

Task item: Please give measured pIC50 of the following entry: CN(CC1CC1)C(=O)c1cccc(-c2cccc(-n3ncc(C(=O)O)c3C(F)(F)F)c2)c1F [Example 47]
Reply: 5.00 to 6.00
